# Test system: HCC-2998 colon
# assayProcedure: NCI-60 one-dose screen, 48 h
# details: 10 µM unless noted
Compounds without any hit were thinned out: in the full panel of roughly 83,000, 20% have a hit. Calls of active or inactive are those of the source. The calls were made as follows: active = growth percent below 10; inactive = the rest.
Returns: one label drawn from y for active, n for inactive

>>> classification("Cc1ccc(/C=C2\\Oc3cc(OCC(=O)c4ccc(Cl)cc4)ccc3C2=O)cc1")
"n"
>>> classification("CCCCNP1(NCCCC)=NP(NCCCC)(NCCCC)=NP(NCCCC)(NCCCC)=NP(NCCCC)(NCCCC)=N1")
"y"
>>> classification("CCN(CC)C12CCCCC1(C)C(C#N)(C#N)C(C#N)=C(N)O2 (stereo not given)")
"n"
>>> classification("c1ccc2c(Nc3cccc4ccccc34)cccc2c1")
"n"

Okay, now this compound:
Fill in: this test's call for COc1cc(-c2c3c(nc4c2c(C)nn4-c2ccccc2)-c2ccccc2C(=O)C3=O)cc(OC)c1OC is ___
n

====

# Test system: TK-10 renal
# assayProcedure: NCI-60 one-dose screen, 48 h (100 = growth as untreated, 0 = no growth, -100 = all killed)
# details: 10 µM unless noted
# Protocol: Growth inhibition of the TK-10 human tumor cell line is measured as a screen for anti-cancer activity. Cells are grown in 96 well plates and exposed to the test compound for 48 hours. Compounds are tested at a single concentration, which is 10^-5 M for most compounds. The reported endpoint is percent growth (GI% or GIPRCNT), where numbers from 0 - 100% represent growth inhibition, and numbers from -100% - 0 represent cell death. For example, a value of 40 represents 60% growth inhibition. […]
The panel holds about 83,000 compounds, 20% with a hit somewhere; the sample as a whole holds those more often.
Binary call on growth with cut-off 80%: strictly below means yes, and equality or higher means no.

>>> classification("CCc1ccc(C(c2ccc(CC)cc2)C(Cl)(Cl)CCl)cc1")
"no"
>>> classification("O=C1c2ccccc2-c2nccc3cc(Cl)nc1c23")
"yes"
>>> classification("N#CC1=C(N)Oc2c(ccc3ccccc23)C1c1cccs1 (stereo unspecified)")
"yes"
>>> classification("CNc1cc2nc3cc(NC)c(C)cc3cc2cc1C")
"yes"
>>> classification("O=C(O)C(O)C(O)C(=O)O.[NH-]C1CCCCC1[NH-].[Pt+2] (stereo unspecified)")
"no"

As a next step, examine the compound that follows.
Consider the compound Cc1ccc2c(c1)C(=O)/C(=C/c1ccc(OCC(=O)c3ccccc3)cc1)O2 . Is its growth strictly less than 80%?
no

====

# System: RPMI-8226 leukemia
# assayProcedure: NCI-60 one-dose screen, 48 h
# details: 10 µM unless noted
Compounds without any hit were thinned out: in the full panel of roughly 83,000, 20% have a hit. The source made the active and inactive calls. How the source made its calls: active means growth percent below 10; inactive means the rest.
Please answer using one outcome listed in T for active, F for inactive

Worked examples, 2 compounds total:
>>> classification("CC/C=C\\C[C@H](O)C/C=C1/C(=O)C=C[C@@H]1C/C=C\\CCCC(=O)OC(C)C")
"T"
>>> classification("Cc1nc2sc(C(=O)Nc3cccc4c3OCCO4)c(N)c2cc1C(C)O (stereo not given)")
"F"

Look up the recorded call for O=C1C=CC(=O)N1c1ccc(Cc2ccc(N3C(=O)C=CC3=O)cc2)cc1 in this test.
F

Any idea what this test logged for CCN(CC)Cc1cc(Nc2c3ccc(Cl)cc3nc3c(C)cccc23)ccc1O ?
T

// param item: Cc1ccc2c(c1)n([O-])c1cc(Cl)ccc1[n+]2=O ; yields the recorded call
F

====

# Test system: SR leukemia
# assayProcedure: NCI-60 one-dose screen, 48 h (100 = growth as untreated, 0 = no growth, -100 = all killed)
# details: 10 µM unless noted
Compounds without any hit were thinned out: in the full panel of roughly 83,000, 20% have a hit.
measurementKind: growth (%)
Kindly provide the numeric value in % only, without the unit symbol.

Examples from the recorded data:
>>> assayresult("O=C(CCCN1CCOCC1)Nc1ccc(Cn2nnc3c2C(=O)c2nnn(Cc4ccc(NC(=O)CCCN5CCOCC5)cc4)c2C3=O)cc1")
10.6
>>> assayresult("CC#CC#Cc1cccc(=O)o1")
-9.17

response.value for CCOC(=O)C(C#N)C1CCCCC1 (stereo not given) (field: growth) = 84.3

====

# System: SF-295 CNS
# assayProcedure: NCI-60 one-dose screen, 48 h
# details: 10 µM unless noted
This is part of a sample that, as a whole, favours compounds with a hit. Of some 83,000 tested, about 20% had one in any assay. Activity calls are given as the source filed them. Rule for the calls: active = growth percent below 10; inactive = the rest.
// classify into active, inactive

// below: answered compounds
>>> classification("CC[C@H](Nc1ncnc(N)c1C(N)=O)c1nc2cccc(NCc3ccc(C(=O)NO)cc3)c2c(=O)n1-c1ccccc1")
"inactive"
>>> classification("CC/C(=C(\\c1ccc(O)cc1)c1ccc(OCCN(C)CCN(C)C(=O)CCCCC(=O)c2c(C)[nH]c(/C=C3\\N=C(c4ccc[nH]4)C=C3OC)c2C)cc1)c1ccccc1")
"inactive"
>>> classification("Cl/C(=N\\Nc1ccccc1)c1ccccc1")
"inactive"
>>> classification("COc1c(Cl)cc(Cl)cc1Cl")
"inactive"
>>> classification("CCN(CC)CC(C)(C)C(=O)/C=C/c1ccccc1")
"inactive"

I would be grateful if you could indicate the recorded call for CC(C)C1=C[C@@]23CC[C@@H]4[C@](C)(CCC[C@@]4(C)C(=O)OCC#CCN4CCCC4)[C@H]2C[C@@H]1[C@H]1C(=O)OC(=O)[C@H]13 .
inactive

How did this test come out for CCOC(=O)C(Cc1cc(I)c(O)c(I)c1)NC(=O)c1ccccc1 (stereo not given) ?
inactive

Please share the test call associated with CCOC(=O)C(=Cc1ccccc1F)C(=O)OCC .
inactive

Check the results log: what was the call for O=C1C[C@H](Sc2nc(-c3ccc(F)cc3)cc(C(F)(F)F)n2)[C@H]2CO[C@@H]1O2 ?
inactive

Field: outcome | Entry: Cc1ccn2c(-c3csc(Nc4cccc(O)c4)n3)c(C)nc2c1
inactive

// return assay outcome for COc1ccc(-c2cnoc2-c2cc(OC)c3c(c2)OCCO3)cc1
active

What is the recorded call for this compound in the test? CC/C=C\C[C@H](F)C/C=C1/C(=O)C=C[C@@H]1C/C=C\CCCC(=O)OC
active

What did this assay record as the result for COc1ncc(-c2ccc3ncnc(Nc4cccc(Cl)c4)c3c2)cc1NS(C)(=O)=O ?
inactive

Per the records of this test, what outcome belongs to O=C(/C=C/c1ccc(B(O)O)cc1)/C=C/c1ccc(B(O)O)cc1 ?
inactive

Call for entry CCCCCC(=O)N(CCCC)CCCC :
inactive

Record lookup: outcome of this test for COc1cc(/C=C2\CN(C(=O)CCN3CCC(=NO)CC3)C/C(=C\c3cc(OC)c(OC)c(OC)c3)C2=O)cc(OC)c1OC ?
active

Recorded test outcome, item CCOC(=O)c1cnc2cc(Cl)c(F)cc2c1Nc1cccc(NS(C)(=O)=O)c1
inactive

Per the records of this test, what outcome belongs to O=C1C=CC(=O)N1c1ccc(Cc2ccc(N3C(=O)C=CC3=O)cc2)cc1 ?
inactive

Field: outcome | Entry: Oc1cccc(Nc2nccc(-c3ccc4ccccc4c3)n2)c1
inactive

Tell me the recorded outcome of this test for COc1ccc(-c2c3c(nc4n[nH]c(-c5ccc(Cl)cc5)c24)-c2ccccc2C(=O)C3=O)cc1 .
inactive

====

# System: MDA-MB-435 melanoma
# assayProcedure: NCI-60 one-dose screen, 48 h (100 = growth as untreated, 0 = no growth, -100 = all killed)
# details: 10 µM unless noted
# Description: Growth inhibition of the MDA-MB-435 human Melanoma tumor cell line is measured as a screen for anti-cancer activity. Cells are grown in 96 well plates and exposed to the test compound for 48 hours. Compounds are tested at a single concentration, which is 10^-5 M for most compounds. The reported endpoint is percent growth (GI% or GIPRCNT), where numbers from 0 - 100% represent growth inhibition, and numbers from -100% - 0 represent cell death. […]
This is part of a sample that, as a whole, favours compounds with a hit. Of some 83,000 tested, about 20% had one in any assay. Activity calls are given as the source filed them. The calls were made as follows: active = growth percent below 10; inactive = the rest.
The entries below are paired with their reported growth.

These recorded examples may help you get a feel for the data.
>>> assayresult("CCCCCCCCCCCCCCCC[N+]1(CC)CCCC1")
"-60.6% (active)"
>>> assayresult("Nc1cc2nc3ccccc3sc-2cc1=O")
"-68.2% (active)"

The compound COCCCNc1nc(NC(=O)c2ccc(F)cc2C)cc(-c2cccnc2)n1 , tested on MDA-MB-435 melanoma, showed growth of 103% (inactive)

Bench note, MDA-MB-435 melanoma: O=C(Nc1ccc(Oc2ccc(F)cc2)c(Cl)c1)c1cccnc1 , growth reads 41.5% (inactive)

====

# Test system: 786-0 renal
# assayProcedure: NCI-60 one-dose screen, 48 h
# details: 10 µM unless noted
The panel holds about 83,000 compounds, 20% with a hit somewhere; the sample as a whole holds those more often. Active and inactive are the calls of the source. Rule for the calls: active = growth percent below 10; inactive = the rest.
Classes to choose from: active, inactive

# example entries with known answers
>>> classification("CC(=O)C1=C(O)C=C2Oc3c(C(=O)/C=C/c4cc(C(F)(F)F)cc(C(F)(F)F)c4)c(O)c(C)c(O)c3[C@]2(C)C1=O")
"active"
>>> classification("O=C(NC(Cc1ccccc1)C(=O)CCl)OCc1ccccc1 (stereo not given)")
"inactive"
>>> classification("C/C(Cc1ccc(Cl)cc1)=C(\\c1ccc(OCCN2CCCCCC2)cc1)c1ccc(OC(=O)Cc2ccccc2)cc1")
"inactive"
>>> classification("CC/C=C\\C[C@H](O)C/C=C1/C(=O)C=C[C@@H]1C/C=C\\CCCC(=O)OC(C)C")
"active"
>>> classification("CCCCNC(=O)NS(=O)(=O)c1ccc(N2N=C(c3cc(C)ccc3C)CC2c2cc(OC)c(OC)c(OC)c2)cc1 (stereo not given)")
"inactive"
>>> classification("CSc1ncnc2c1ncn2C1CCCO1 (stereo not given)")
"inactive"

What was the test verdict on CCOC(=O)c1ccc2c(c1)nc(/C=C/c1ccc(Cl)cc1)n2-c1cc(C(C)(C)C)[nH]n1 ?
inactive

Can you look up the reported call for O=C1O[C@H]([C@H](O)CO)C(O)=C1O for me?
inactive

Assay outcome for CC/C=C\C[C@H](O)C/C=C1/C(=O)C=C[C@@H]1C/C=C\CCCC(=O)NC(C)C : what was it?
active

Each molecule tested received a call. Report the one for O=C(N/N=C/c1ccc(O)cc1O)c1cccnc1 .
inactive

Data provenance: PubChem BioAssay (NCI)
